Reported pKd by item:
Molecular target: SARS-CoV-2 spike RBD (Wuhan-Hu-1) (Severe acute respiratory syndrome …, UniProt P0DTC2)
Test: SPR
pKd: −log10 of the molar value.
attribute measured: pKd

binder | observed result
COVIC-158 (antibody, V domains shown) VH: EVQLVESGGGLIQPGGSLRLSCAASGLTVSSNYMNWVRQAPGKKLEWVSVIYSGGSTFYADSVRGRFTISRDNSKNTLFLQMNSLRAEDSAVYYCARDLGPYGVDVWGQGTTVTVSS VL: DIQLTQSPSFLSASVGDRVTITCWASQGISSYLAWYQQKPGKAPKLLIYAASTLQSGVPSRFSGSGSGTEFTLTISSLQPEDFATYYCQQLNSYPLTFGQGTRLEIKR | 8.80
COVIC-303 (antibody, V domains shown) VH: QVTLKESGPVLVKPTETLTLTCTVSGFSLSNARMGVSWIRQPPGKALEWLAHIFSNGEKSYSTSLKSRLTISKDTSKSQVVLTMTNMDPVDTATYYCARTLDYYDSSGYLVGGAFDIWGQGTMVTVSS VL: QPGLTQPPSVSLAPGQTARITCGGNNIGSKSVHWYQQKPGQAPVLVVYDDSDRPSGIPERFSGSNAGNTATLTISRVEAGDEADYYCQVWDSRSDQYVFGTRTKLTVLG | 9.77
COVIC-336 (antibody, V domains shown) VH: QITLKESGPTLVKPTQTLTLTCTFSGFSLSSGGVGVGWIRQPPGKALEWLALIYWDDDKRYRPSLKSRLTITRDTSTNQVVLTMTNMDPVDTATYFCARHQIATVFDHWGQGTLVTVSS VL: QSALTQPASVSGSPGQSITISCTGTSSDVGGYNYVSWYQQHPGKAPKLMIYEVSNRPSGVSSRFSGSKSGNTASLTISGLQAEDEADYYCSSYTRSSPLVAFGGGTKVTVL | 8.67
